Value source: the OPERA property sets (Mansouri et al. 2018)

// assign Satisfied if logP falls strictly below 3, else Not satisfied (ties count as Not satisfied)

Would you please look over these solved cases?
{"columns": ["molecule", "classification"],
 "data": [
  ["CN(C)C(=O)OCCc1ccccc1", "Satisfied"],
  ["NC(=O)OCCc1ccccc1", "Satisfied"],
  ["CCN(CC)C(=O)OCCc1c[nH]c2ccccc12", "Not satisfied"],
  ["NC(=O)OCCCc1cccnc1", "Satisfied"],
  ["CC(Cc1ccccc1)OC(=O)N(C)C (stereo not given)", "Satisfied"]
]}

Lab note: logP threshold 3. Does this molecule come in strictly under it? "CNC(=O)OCc1ccccc1"
Satisfied

And for "CN(C)C(=O)OCCc1c[nH]c2ccccc12" ?
Satisfied

And for "CC(C)OC(=O)N(C)C" ?
Satisfied

And for "NC(=O)OCCCc1ccccc1" ?
Satisfied

And for "CCN(CC)C(=O)OCCc1ccccc1" ?
Not satisfied

And for "NC(=O)OCCc1c[nH]c2ccccc12" ?
Satisfied

And for "CCN(CC)C(=O)OCCCc1ccccn1" ?
Satisfied

And for "CCN(CC)C(=O)OCC(C)C" ?
Satisfied
